Test system: SK-MEL-28 melanoma
Test: NCI-60 one-dose screen, 48 h
Settings: 10 µM unless noted
This is part of a sample that, as a whole, favours compounds with a hit. Of some 83,000 tested, about 20% had one in any assay. Active and inactive are the calls of the source. How the source made its calls: active means growth percent below 10; inactive means the rest.
Classes to choose from: yes for active, no for inactive

[
  {
    "COMPOUND": "COc1ccc2c(c1)c(-c1cc(N)n3nc(-c4cn(C)c5ccc(OC)cc45)cc3n1)cn2C",
    "CATEGORY": "no"
  }
]

Here is the next item to consider.
Name the outcome recorded for Cc1ccc2sc3c(c2c1)OC(N)=C(C#N)C3c1cccc(F)c1 (centres undefined) in the assay.
no
